Provide the recorded IC50 for the entries that follow.
# TGT: EGFR (UniProt P00533)
# Sequence (P00533 whole entry, looked up): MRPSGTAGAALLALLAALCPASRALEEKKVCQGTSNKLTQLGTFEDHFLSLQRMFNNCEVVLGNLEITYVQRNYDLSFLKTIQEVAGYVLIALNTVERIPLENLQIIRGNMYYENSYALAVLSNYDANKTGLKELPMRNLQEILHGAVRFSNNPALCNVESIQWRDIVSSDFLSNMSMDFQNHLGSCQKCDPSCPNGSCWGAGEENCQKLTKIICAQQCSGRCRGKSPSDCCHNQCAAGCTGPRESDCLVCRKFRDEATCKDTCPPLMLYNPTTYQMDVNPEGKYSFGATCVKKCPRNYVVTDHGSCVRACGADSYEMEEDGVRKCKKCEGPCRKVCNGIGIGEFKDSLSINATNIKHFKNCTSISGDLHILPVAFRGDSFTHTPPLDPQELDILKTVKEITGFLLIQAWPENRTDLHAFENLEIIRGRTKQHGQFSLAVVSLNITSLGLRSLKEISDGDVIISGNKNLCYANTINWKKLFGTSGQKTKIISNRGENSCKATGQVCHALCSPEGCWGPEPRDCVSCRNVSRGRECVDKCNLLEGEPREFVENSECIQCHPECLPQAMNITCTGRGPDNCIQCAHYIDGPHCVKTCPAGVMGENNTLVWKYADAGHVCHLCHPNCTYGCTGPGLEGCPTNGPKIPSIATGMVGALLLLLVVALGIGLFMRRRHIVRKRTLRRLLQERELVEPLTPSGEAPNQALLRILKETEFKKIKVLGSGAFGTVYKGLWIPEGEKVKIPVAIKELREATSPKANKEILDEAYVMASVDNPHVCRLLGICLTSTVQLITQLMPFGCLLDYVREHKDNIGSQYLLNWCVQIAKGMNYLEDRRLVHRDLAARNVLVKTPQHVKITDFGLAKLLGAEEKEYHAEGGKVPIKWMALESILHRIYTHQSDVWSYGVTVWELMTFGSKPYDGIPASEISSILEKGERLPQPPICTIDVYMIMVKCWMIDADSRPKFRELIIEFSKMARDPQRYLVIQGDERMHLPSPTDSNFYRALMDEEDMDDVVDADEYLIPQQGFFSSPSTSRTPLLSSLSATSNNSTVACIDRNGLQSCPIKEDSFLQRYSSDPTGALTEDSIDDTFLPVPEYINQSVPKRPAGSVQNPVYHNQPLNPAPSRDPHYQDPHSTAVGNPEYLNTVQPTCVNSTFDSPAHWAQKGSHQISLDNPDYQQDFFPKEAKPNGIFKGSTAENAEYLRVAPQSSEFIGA
# ASSAY INFO: EGFR Kinase Inhibition
One number for each entry, in µM.

// solved cases for IC50 follow
{"columns": ["COMPOUND", "ASSAY READOUT", "MEAS VALUE"],
 "data": [
  ["COc1ccc(Nc2ncc3cc(-c4c(Cl)cccc4Cl)c(=O)n(C)c3n2)cn1", "IC50", 1.3],
  ["CN1CCN(CCCCCNc2ncc3cc(-c4c(Cl)cccc4Cl)c(=O)n(C)c3n2)CC1", "IC50", 4.5],
  ["C[C@@H](O)[C@@H](NC1=CC(=O)C(N[C@@H](C(=O)O)[C@@H](C)O)=CC1=O)C(=O)O", "IC50", 44]
]}

We now examine a further compound.
Value wanted: IC50 (EGFR (UniProt P00533)) of entry `Cn1c(=O)c(-c2c(Cl)cccc2Cl)cc2cnc(NCCCCCC(=O)O)nc21`
1

* * *

# TGT: UniProt P00533
ASSAY READOUT: IC50

Give the measured IC50 of `CN(C(=O)C1CCCCC1)c1ccc2c(c1)nc(NC(=O)c1cccs1)n2CCC(N)=O` .
> 6 µM

* * *

Entries with their measured log10(IC50), system EGFR (UniProt P00533):
The figures below represent log10 of IC50, where IC50 is stated in nM.

// solved cases for log10(IC50) follow
{"columns": ["COMPOUND", "MEAS VALUE"],
 "data": [
  ["Nc1cc2c(Nc3cccc(Br)c3)ncnc2cn1", -0.89],
  ["CNc1cc2c(Nc3cccc(Br)c3)ncnc2cn1", -2.10],
  ["CN(C)c1cc2c(Nc3cccc(Br)c3)ncnc2cn1", -2.22],
  ["Nc1ccc2ncnc(Nc3cccc(Br)c3)c2n1", 0.88],
  ["COc1cc2c(Nc3cccc(Br)c3)ncnc2cn1", -2.59],
  ["COc1ccc2ncnc(Nc3cccc(Br)c3)c2c1", 1.48]
]}

Give the measured log10(IC50) of `CN(C)c1ccc2ncnc(Nc3cccc(Br)c3)c2c1` .
1.92

* * *

Provide the recorded IC50 for the entries that follow.
# TGT: EGFR (UniProt P00533)
Answers are plain numbers, in nM.

// solved cases for IC50 follow
{"columns": ["COMPOUND", "IC50 (nM)"],
 "data": [
  ["COc1cn2ncnc(Nc3ccc4c(cnn4Cc4cccc(F)c4)c3)c2c1CN1CCCNCC1", 190],
  ["Cc1ccn2ncnc(Nc3ccc4c(cnn4Cc4cccc(F)c4)c3)c12", 81],
  ["O=C1CNCCN(Cc2ccn3ncnc(Nc4ccc5c(cnn5Cc5cccc(F)c5)c4)c23)C1", 78]
]}

We now examine a further molecule.
Give the measured IC50 of `Cc1cn2ncnc(Nc3ccc4c(cnn4Cc4cccc(F)c4)c3)c2c1CN1CCCNCC1` .
130

* * *

# TGT: PIK3CA (human), P42336 [H1047R]
# Sequence (P42336 whole entry H1047R, looked up): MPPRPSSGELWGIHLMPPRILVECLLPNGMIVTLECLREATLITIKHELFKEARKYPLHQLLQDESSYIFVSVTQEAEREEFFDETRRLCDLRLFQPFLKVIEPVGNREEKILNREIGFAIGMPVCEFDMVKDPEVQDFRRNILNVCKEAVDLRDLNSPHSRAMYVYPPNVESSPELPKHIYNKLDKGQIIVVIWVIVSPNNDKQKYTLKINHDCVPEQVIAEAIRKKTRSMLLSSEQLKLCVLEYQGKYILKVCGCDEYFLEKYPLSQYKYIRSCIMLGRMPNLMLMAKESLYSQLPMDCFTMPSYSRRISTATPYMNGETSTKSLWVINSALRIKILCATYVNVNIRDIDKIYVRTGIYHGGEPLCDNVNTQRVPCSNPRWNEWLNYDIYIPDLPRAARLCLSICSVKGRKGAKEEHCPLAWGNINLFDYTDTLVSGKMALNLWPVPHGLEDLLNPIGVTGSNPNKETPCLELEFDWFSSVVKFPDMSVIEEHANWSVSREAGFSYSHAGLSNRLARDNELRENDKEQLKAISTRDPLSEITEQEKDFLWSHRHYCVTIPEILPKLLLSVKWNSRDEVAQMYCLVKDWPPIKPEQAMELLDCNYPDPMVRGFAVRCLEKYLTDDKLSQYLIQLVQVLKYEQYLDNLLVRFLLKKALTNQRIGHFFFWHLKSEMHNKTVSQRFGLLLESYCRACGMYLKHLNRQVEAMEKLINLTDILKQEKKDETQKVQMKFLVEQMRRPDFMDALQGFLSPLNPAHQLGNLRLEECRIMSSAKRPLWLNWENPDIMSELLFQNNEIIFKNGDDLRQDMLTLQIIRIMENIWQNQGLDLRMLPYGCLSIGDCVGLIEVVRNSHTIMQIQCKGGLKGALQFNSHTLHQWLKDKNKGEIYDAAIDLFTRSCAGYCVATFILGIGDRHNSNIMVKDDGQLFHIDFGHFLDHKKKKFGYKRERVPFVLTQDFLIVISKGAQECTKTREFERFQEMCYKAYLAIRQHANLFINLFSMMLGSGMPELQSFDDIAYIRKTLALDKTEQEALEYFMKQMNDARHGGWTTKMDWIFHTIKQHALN
# ASSAY INFO: Assessment of PIK3CA Kinase (H1047R) Activity
ASSAY READOUT: pIC50
One number for each entry, as −log10 of the molar value.

Value wanted: pIC50 (PIK3CA (human), P42336 [H1047R]) of entry `COc1cc(F)c2[nH]c(-c3c(C)nn(C)c3C)c(/C=C3\Oc4ccc(NC(=O)Nc5ccc(C(=O)N(C)CCN(C)C)cc5)cc4C3=O)c2c1`
9.30
